Origin of values: the supplement of paper PMC12338614

Readings of STK11 functional score for the listed variants
B1: library; numbered along this chain (parent)
chain: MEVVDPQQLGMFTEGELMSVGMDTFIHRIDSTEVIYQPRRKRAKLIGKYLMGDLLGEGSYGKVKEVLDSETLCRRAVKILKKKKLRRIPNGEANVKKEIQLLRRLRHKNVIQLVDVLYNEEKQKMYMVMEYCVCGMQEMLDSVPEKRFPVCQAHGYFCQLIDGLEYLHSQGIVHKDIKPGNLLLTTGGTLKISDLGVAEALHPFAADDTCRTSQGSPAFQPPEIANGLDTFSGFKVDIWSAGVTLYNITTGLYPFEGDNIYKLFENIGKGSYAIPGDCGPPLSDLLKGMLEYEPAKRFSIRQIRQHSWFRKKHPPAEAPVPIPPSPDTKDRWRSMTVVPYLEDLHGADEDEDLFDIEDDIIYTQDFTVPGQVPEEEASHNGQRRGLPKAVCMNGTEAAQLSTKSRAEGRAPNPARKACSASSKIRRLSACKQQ

Variants of: B1
Assay: STK11 functional score (HeLa growth suppression), rescaled enrichment; synonymous median = 1, nonsense median = 0 (normalised score)
Conditions: with HeLa; variant type: missense

[
  {
    "Mutation List": "N90P",
    "STK11 functional score": 1.08
  },
  {
    "Mutation List": "P179L",
    "STK11 functional score": 0.376
  },
  {
    "Mutation List": "T244C",
    "STK11 functional score": 1.32
  },
  {
    "Mutation List": "V372N",
    "STK11 functional score": 1.54
  },
  {
    "Mutation List": "E92V",
    "STK11 functional score": 1.02
  },
  {
    "Mutation List": "D350C",
    "STK11 functional score": 1.51
  },
  {
    "Mutation List": "V337S",
    "STK11 functional score": 0.723
  },
  {
    "Mutation List": "P294M",
    "STK11 functional score": 1.13
  },
  {
    "Mutation List": "L55V",
    "STK11 functional score": 0.737
  },
  {
    "Mutation List": "E130P",
    "STK11 functional score": 0.365
  },
  {
    "Mutation List": "G163A",
    "STK11 functional score": 1.05
  },
  {
    "Mutation List": "L117P",
    "STK11 functional score": 0.386
  },
  {
    "Mutation List": "M51W",
    "STK11 functional score": 0.189
  },
  {
    "Mutation List": "L201A",
    "STK11 functional score": 1.59
  },
  {
    "Mutation List": "L182S",
    "STK11 functional score": 0.561
  },
  {
    "Mutation List": "E65V",
    "STK11 functional score": 0.734
  },
  {
    "Mutation List": "L9R",
    "STK11 functional score": 1.12
  },
  {
    "Mutation List": "Q170G",
    "STK11 functional score": 1.37
  },
  {
    "Mutation List": "N259W",
    "STK11 functional score": 0.92
  },
  {
    "Mutation List": "N393S",
    "STK11 functional score": 1.09
  },
  {
    "Mutation List": "A429Y",
    "STK11 functional score": 1.49
  },
  {
    "Mutation List": "P149W",
    "STK11 functional score": 0.608
  },
  {
    "Mutation List": "G270T",
    "STK11 functional score": 1.09
  },
  {
    "Mutation List": "G61R",
    "STK11 functional score": 0.216
  },
  {
    "Mutation List": "T185L",
    "STK11 functional score": 1.08
  },
  {
    "Mutation List": "C134R",
    "STK11 functional score": 1.52
  },
  {
    "Mutation List": "N266C",
    "STK11 functional score": 0.945
  },
  {
    "Mutation List": "M125L",
    "STK11 functional score": 1
  },
  {
    "Mutation List": "S19K",
    "STK11 functional score": 1.53
  },
  {
    "Mutation List": "G242V",
    "STK11 functional score": -0.059
  },
  {
    "Mutation List": "F354L",
    "STK11 functional score": 1.12
  },
  {
    "Mutation List": "R331P",
    "STK11 functional score": 1.54
  },
  {
    "Mutation List": "C132V",
    "STK11 functional score": 0.601
  },
  {
    "Mutation List": "A316V",
    "STK11 functional score": 0.768
  },
  {
    "Mutation List": "P38Y",
    "STK11 functional score": 0.0651
  },
  {
    "Mutation List": "V95T",
    "STK11 functional score": 1.62
  },
  {
    "Mutation List": "K146L",
    "STK11 functional score": 1.13
  },
  {
    "Mutation List": "I300S",
    "STK11 functional score": 0.391
  },
  {
    "Mutation List": "L54I",
    "STK11 functional score": 0.71
  },
  {
    "Mutation List": "R147A",
    "STK11 functional score": 0.87
  },
  {
    "Mutation List": "Q214T",
    "STK11 functional score": 1.64
  },
  {
    "Mutation List": "P373T",
    "STK11 functional score": 1.11
  },
  {
    "Mutation List": "K124P",
    "STK11 functional score": 0.692
  },
  {
    "Mutation List": "I300P",
    "STK11 functional score": 1.42
  },
  {
    "Mutation List": "I192F",
    "STK11 functional score": 1.13
  },
  {
    "Mutation List": "G188C",
    "STK11 functional score": 0.212
  }
]
